Source of measurements: ChEMBL document CHEMBL1955778

# assay overview: Neurotoxicity in ip dosed mouse assessed as impaired motor coordination administered 30 mins prior to test by chimney test
# Format: toxicity, organism-based
# measurement conditions: in vivo
Below, each entry is listed alongside its reported TD50 at 0.5 h.
Express the result in µmol/kg but write the number alone.

- Cc1ccccc1-n1c(C)nc2ccccc2c1=O [METHAQUALONE]: 1600

Entry Cc1ccccc1-n1c(C)nc2cc(N3C(=O)CSC3c3ccc(Cl)cc3)ccc2c1=O (stereo not drawn) has what TD50 at 0.5 h?
600

May I ask what TD50 at 0.5 h has been recorded for Cc1ccccc1-n1c(C)nc2cc(N3C(=O)CSC3c3ccc(F)cc3)ccc2c1=O (stereo not drawn) ?
560

Can you look up the measured TD50 at 0.5 h of `CCOC(=O)Nc1ccc2c(=O)n(-c3ccccc3C)c(C)nc2c1` for me?
1780

Which TD50 at 0.5 h value belongs to Cc1ccccc1-n1c(C)nc2cc(N3C(=O)CSC3c3ccccc3)ccc2c1=O (stereo not drawn) ?
750

Look up TD50 at 0.5 h for this compound: `Cc1ccccc1-n1c(C)nc2cc(/N=C/c3ccc(Cl)cc3)ccc2c1=O`
890

TD50 at 0.5 h lookup needed for CCCC(CCC)C(=O)[O-].[Na+] [VALPROATE SODIUM] , thanks.
2700

Consider the compound shown here: `Cc1ccccc1-n1c(C)nc2cc(/N=C/c3ccc(F)cc3)ccc2c1=O` What is its recorded TD50 at 0.5 h?
930
